System: Kunming mice
Test: Influence on hypnosis effect with pentobarbital sodium doses at the threshold (50 mg/kg i.p.)
Type: in vivo
Settings: 100 mg/kg intragastric single dose, pentobarbital sodium 50 mg/kg i.p. 60 min later, x ± s, n = 10
VALUE_KIND: time to sleep (min)
Your answer should be a plain number; it is taken to be in min.

Some compounds with recorded time to sleep:
{"COMPOUND": "COc1ccc(O)cc1-c1cc(=O)c2c(O)cc(OC)c(OC)c2o1 [Example 12]", "TARGET_DESC": "Kunming mice", "VALUE_UNIT": "min", "EXPERIMENTAL_RESULT": 4.25}
{"COMPOUND": "CCc1cccc2c1C(=O)CC(c1cc(F)cc(C(=O)O)c1)O2 (centres unmarked) [Example 53]", "TARGET_DESC": "Kunming mice", "VALUE_UNIT": "min", "EXPERIMENTAL_RESULT": 3.61}
{"COMPOUND": "COc1ccc(C2CC(=O)c3cc(CCS(=O)(=O)O)c(C4CCNC4)c(N)c3O2)cc1SC#N (centres unmarked) [Example 55]", "TARGET_DESC": "Kunming mice", "VALUE_UNIT": "min", "EXPERIMENTAL_RESULT": 3.21}
{"COMPOUND": "N#Cc1cc(-c2cc(=O)c3c(N)cc(F)cc3o2)ccc1O [Example 37]", "TARGET_DESC": "Kunming mice", "VALUE_UNIT": "min", "EXPERIMENTAL_RESULT": 3.88}
{"COMPOUND": "CC=Cc1c(C(=O)O)cc2c(=O)cc(-c3ccc(F)c(C#N)c3)oc2c1C(=O)O [Example 34]", "TARGET_DESC": "Kunming mice", "VALUE_UNIT": "min", "EXPERIMENTAL_RESULT": 3.45}
{"COMPOUND": "CCCc1cc(-c2cc(=O)c3c(I)cc(CCS(=O)(=O)O)cc3o2)cc(C(N)=O)c1C(=O)O [Example 23]", "TARGET_DESC": "Kunming mice", "VALUE_UNIT": "min", "EXPERIMENTAL_RESULT": 3.14}
{"COMPOUND": "COc1ccc(-c2cc(=O)c3c(OC)c(OC)c(OC)c(OC)c3o2)cc1 [Example 8, 5,6,7,8,4′-penta methoxyl-flavone]", "TARGET_DESC": "Kunming mice", "VALUE_UNIT": "min", "EXPERIMENTAL_RESULT": 3.21}

If you can, please state the reported time to sleep value of CCCc1cc(C2CC(=O)c3c(cc(O)cc3[N+](=O)[O-])O2)cc(-c2ccccc2)c1C1CCSC1 (centres unmarked) [Example 51] . 2.71

----------
Here the recorded Times of activities in 2 h after drug administration/10 min is given for each entry.
Tested on: Kunming mice
Test: Influence on autonomic activity of normal mice (ZIL-2 mice autonomic activity meter, counts within 10 min)
Type: in vivo
Settings: intragastric, 25 mg/kg, 2 h after administration, x ± s, n = 10

Some molecules with recorded Times of activities in 2 h after drug administration/10 min:
{"MOLECULE": "COc1ccc(-c2cc(=O)c3c(O)cc(OC)c(OC)c3o2)cc1O [Example 2]", "EXPERIMENTAL_RESULT": "293.5 ± 40.8 /10 min"}
{"MOLECULE": "COc1ccc(-c2cc(=O)c3c(OC)c(OC)c(OC)c(OC)c3o2)cc1 [Example 8, 5,6,7,8,4′-penta methoxyl-flavone]", "EXPERIMENTAL_RESULT": "290.2 ± 39.6 /10 min"}

Shifting focus to the molecule that follows.
Form entry - test system: Kunming mice; read-out: Times of activities in 2 h after drug administration/10 min; molecule: COc1ccc(-c2cc(=O)c3cc(OC)c(OC)c(OC)c3o2)cc1OC [Example 27] 282.2 ± 41.5 /10 min
